Attribution: paper PMC9564337

STUDY TARGET: hNTS1R (Homo sapiens)
Construct: intact HT-29 colon carcinoma cells expressing the hNTS1R; host or cells: HT-29 human colon carcinoma cells
Sequence (P30989 whole entry): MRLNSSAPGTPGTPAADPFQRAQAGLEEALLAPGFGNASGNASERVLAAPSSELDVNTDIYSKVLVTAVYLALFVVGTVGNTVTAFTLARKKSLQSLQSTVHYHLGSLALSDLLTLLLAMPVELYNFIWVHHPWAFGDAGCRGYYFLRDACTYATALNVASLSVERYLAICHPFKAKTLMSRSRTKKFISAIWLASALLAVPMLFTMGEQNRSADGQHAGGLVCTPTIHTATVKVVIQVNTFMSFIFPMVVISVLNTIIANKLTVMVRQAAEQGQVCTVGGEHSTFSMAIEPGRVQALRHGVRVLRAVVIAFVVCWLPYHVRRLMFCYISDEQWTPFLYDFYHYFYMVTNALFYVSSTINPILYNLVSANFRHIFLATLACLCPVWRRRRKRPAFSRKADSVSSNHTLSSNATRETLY
EXPERIMENT DESCRIPTION: radioligand competition binding with [3H]UR-MK300 at intact HT-29 cells
CONDITION SET: [3H]UR-MK300 c = 1 nM, HT-29 cells, 23 °C; read-out: pKi ± SD NTS1R (converted)
Below, each of the molecules is paired with its reported log10(Ki) value.
All values: log10 Ki [nM].

Please review the following examples before continuing.
| LINE NOTATION | READOUT | MEASURED NUMBER |
| --- | --- | --- |
| CN[C@@H](CCCNC(N)=NC(=O)NCCCCNC(=O)CN1CCN(CC(=O)O)CCN(CC(=O)O)CCN(CC(=O)O)CC1)C(=O)N[C@@H](CCCNC(=N)N)C(=O)N1CCC[C@H]1C(=O)N[C@@H](Cc1ccc(O)cc1)C(=O)N[C@H](C(=O)N[C@@H](CC(C)C)C(=O)O)C(C)(C)C | log10(Ki) | 1.52 |
| CN[C@@H](CCCNC(=N)N)C(=O)N[C@@H](CCCNC(=N)NC(=O)NCCCCNC(=O)CN1CCN(CC(=O)O)CCN(CC(=O)O)CCN(CC(=O)O)CC1)C(=O)N1CCC[C@H]1C(=O)N[C@@H](Cc1ccc(O)cc1)C(=O)N[C@H](C(=O)N[C@@H](CC(C)C)C(=O)O)C(C)(C)C | log10(Ki) | 1.34 |
| CN[C@@H](CCCNC(N)=NC(=O)NCCOCCOCCNC(=O)[C@@H](Cc1ccc(-c2ccc(F)cc2)cc1)NC(=O)CN1CCN(CC(=O)O)CCN(CC(=O)O)CCN(CC(=O)O)CC1)C(=O)N[C@@H](CCCNC(=N)N)C(=O)N1CCC[C@H]1C(=O)N[C@@H](Cc1ccc(O)cc1)C(=O)N[C@H](C(=O)N[C@@H](CC(C)C)C(=O)O)C(C)(C)C | log10(Ki) | 1.13 |
| CN[C@@H](CCCNC(N)=NC(=O)NCCOCCOCCNC(=O)[C@H](N)Cc1ccc(-c2ccc(F)cc2)cc1)C(=O)N[C@@H](CCCNC(=N)N)C(=O)N1CCC[C@H]1C(=O)N[C@@H](Cc1ccc(O)cc1)C(=O)N[C@H](C(=O)N[C@@H](CC(C)C)C(=O)O)C(C)(C)C | log10(Ki) | 0.48 |
| CN[C@@H](CCCNC(N)=NC(=O)NCCOCCOCCNC(=O)[C@@H](Cc1ccc(-c2ccc(F)cc2)cc1)NC(=O)CCCCCNC(=O)CN1CCN(CC(=O)O)CCN(CC(=O)O)CCN(CC(=O)O)CC1)C(=O)N[C@@H](CCCNC(=N)N)C(=O)N1CCC[C@H]1C(=O)N[C@@H](Cc1ccc(O)cc1)C(=O)N[C@H](C(=O)N[C@@H](CC(C)C)C(=O)O)C(C)(C)C | log10(Ki) | 1.03 |
| CC[C@@H](C)[C@H](NC(=O)[C@H](Cc1ccc(O)cc1)NC(=O)[C@@H]1CCCN1C(=O)[C@H](CCCNC(=N)N)NC(=O)[C@H](CCCNC(=N)N)NC)C(=O)N[C@@H](CC(C)C)C(=O)O | log10(Ki) | 0.67 |

Query block: What value of log10(Ki) has been recorded for this entry: CN[C@@H](CCCNC(N)=NC(=O)NCCCCN)C(=O)N[C@@H](CCCNC(=N)N)C(=O)N1CCC[C@H]1C(=O)N[C@H](C(=O)N[C@H](C(=O)N[C@@H](CC(C)C)C(=O)O)C(C)(C)C)C(C)(C)c1ccc(O)cc1
Result block: 0.70

Query block: What value of log10(Ki) has been reported for the following molecule? CN[C@@H](CCCNC(=N)NC(=O)NCCCCNC(=O)CN1CCN(CC(=O)O)CCN(CC(=O)O)CCN(CC(=O)O)CC1)C(=O)N[C@@H](CCCNC(=N)N)C(=O)N1CCC[C@H]1C(=O)N[C@H](C(=O)N[C@H](C(=O)N[C@@H](CC(C)C)C(=O)O)C(C)(C)C)C(C)(C)c1ccc(O)cc1
Result block: 1.90

Query block: Which log10(Ki) value belongs to CN[C@@H](CCCNC(N)=NC(=O)NCCCCNC(=O)[C@H](N)Cc1ccc(-c2ccc(F)cc2)cc1)C(=O)N[C@@H](CCCNC(=N)N)C(=O)N1CCC[C@H]1C(=O)N[C@@H](Cc1ccc(O)cc1)C(=O)N[C@H](C(=O)N[C@@H](CC(C)C)C(=O)O)C(C)(C)C ?
Result block: 0.63

Query block: Fill blank: measured log10(Ki) of the molecule CC[C@H](C)[C@H](NC(=O)[C@H](Cc1ccc(O)cc1)NC(=O)[C@@H]1CCCN1C(=O)[C@H](CCCNC(=N)N)NC(=O)[C@H](CCCNC(=N)N)NC)C(=O)N[C@@H](CC1CC1)C(=O)O is ____.
Result block: 0.37

Query block: Requested read-out: log10(Ki). Entry: CN[C@@H](CCCNC(N)=NC(=O)NCCCCNC(=O)[C@@H](Cc1ccc(-c2ccc(F)cc2)cc1)NC(=O)CN1CCN(CC(=O)O)CCN(CC(=O)O)CCN(CC(=O)O)CC1)C(=O)N[C@@H](CCCNC(=N)N)C(=O)N1CCC[C@H]1C(=O)N[C@@H](Cc1ccc(O)cc1)C(=O)N[C@H](C(=O)N[C@@H](CC(C)C)C(=O)O)C(C)(C)C
Result block: 1.01
